What Reaction with 9-EtG, extent of adduct formation was measured for each of the following?
System: 9-ethylguanine (9-EtG)
assayProtocol: Interactions with nucleobases: 9-EtG adduct formation (1H NMR)
Type: binding
condition: 10 min; 1 mM, 1 mol equiv 9-EtG (ZL33A: 2 mol equiv), D2O, 310 K
The response must be a number in % with no trailing unit.

Answer with the recorded Reaction with 9-EtG, extent of adduct formation of Cc1c(C)c(-c2ccccc2)[c-](C)c1C.F[P-](F)(F)(F)(F)F.[Cl-].[Ir+3].c1ccc(-c2ccccn2)nc1 (stereo not drawn) [ZL37, [(η^5-C5Me4C6H5)Ir(bipy)Cl]PF6] only.
18.6

Answer with the recorded Reaction with 9-EtG, extent of adduct formation of Cc1c(C)c(C)[c-](C)c1C.[Cl-].[Cl-].[Ir+3].c1cnc2c(c1)ccc1cccnc12 [ZL07, [(η^5-C5Me5)Ir(phen)Cl]Cl] only.
73.1

Answer with the recorded Reaction with 9-EtG, extent of adduct formation of Cc1c(C)c(-c2ccccc2)[c-](C)c1C.O=C([O-])c1ccccn1.[Cl-].[Ir+3] (stereo not drawn) [ZL38, [(η^5-C5Me4C6H5)Ir(η^2-C5H4N-2-CO2)Cl]] only.
100

Values compiled from patent US9408853B2.
